Tested on: SF-268
Test: NCI tumour cell line growth inhibition, 48 h
Activity calls are given as the source filed them. Rule as the data show it: active = GI50 up to about 1.1 µM and inactive = higher.
parameter measured: GI50

{"compound": "CCSCC(=O)N1CCc2c([nH]c3ccccc23)C1=O", "tested system": "SF-268", "GI50": "> 100 µM (inactive)"}
{"compound": "CC1[C@@H]2CC=C3C4CCC5Cc6nc7c(nc6C[C@@]5(C)C4CC(=O)[C@]32CO[C@@]1(O)C(O)CC(C)(C)O)CC1CCC2C3=C[C@H]4O[C@@]5(O[C@@](C)(CO)C[C@@H]5O)C(C)[C@@]4(O)[C@]3(C)[C@@H](O)CC2[C@]1(C)C7 (some centres undefined)", "tested system": "SF-268", "GI50": "0.00676 µM (active)"}

What does the data say about its GI50? Entry: `N=c1c2c(=S)n(-c3ccccc3)c(=S)n(-c3ccccc3)c2nc(SCCCN2CCCCC2)n1-c1ccccc1`
1.99 µM (inactive)

What does the data say about its GI50? Entry: `O=c1cc(-c2ccccc2)c2ccc(O)c(CN(CCCl)CCCl)c2o1`
17.5 µM (inactive)
